Measured cytotoxicity at 10 µM, listed per entry for reference.
Assay: Toxicity liver stage against HepG2, at 10uM
Type: cell-based
Set-up: test concentration 10 uM, cell line HepG2-A16-CD81EGFP
Conditions: human, HepG2-A16-CD81EGFP cells; read-out: INHIBITION
Express your answer in %, writing the number without its unit.

Worked examples follow.
compound	observed_result
Cc1cc(N2CCCCC2)nc(N(CCO)CCO)c1C#N	-7.32
CCS(=O)(=O)N1C[C@@H](C(=O)NC(C)C)[C@@]2(Cc3ccccc3C(=O)N2)C1	1.11
Cc1nn(C)c2nc(-c3ccccn3)nc(NCCCOC(C)C)c12	1.5
Cn1cc(CCCN2CCCC(c3cc(C(F)(F)F)[nH]n3)C2)cn1 (configuration not stated)	-2.59
CCN(CC(=O)N(C)C)C(=O)c1nc(C)n(-c2ccccc2Cl)n1	7.3

cytotoxicity at 10 µM in this record for CNC(=O)[C@H]1CCS(=O)(=O)[C@@H]2CN(Cc3ccc(OC)cc3)C[C@H]12 : -10.3

cytotoxicity at 10 µM in this record for CC[C@@]1(O)CCN(C(=O)c2ccsc2)C[C@H]1O : -9.35

cytotoxicity at 10 µM in this record for O=C(c1cccc(S(=O)(=O)NCCCc2ncc[nH]2)c1)N1CCOCC1 : -11.4
